# measured target: Human Fc (human)
# protocol summary: ELISA, negative control
Would you kindly list optical density for each of these binders?
Answers are plain numbers, in OD.

Reference set (4 entries):
369_F01 (antibody, V domains shown) VH: EVQLLESGGGLVQPGGSLRLSCAASGFTFSSYGMNWVRQAPGKGLEWVSGINYNGGYKSYADSVKGRFTISRDNSKNTLYLQMNSLRAEDTAVYYCARSANWHDTALDYWGQGTLVTVSS VL: DIQMTQSPSSLSASVGDRVTITCRASQSILTYVNWYQQKPGKAPKLLIYAATSRASGVPSRFSGSGSGTDFTLTISSLQPEDFATYYCQQSYELPLTFGGGTKVEIK; 0.554
368_G12 (antibody, V domains shown) VH: EVQLLESGGGLVQPGGSLRLSCAASGFTFSSYGMNWVRQAPGKGLEWVASINYNSGYTGYADSVKGRFTISRDNSKNTLYLQMNSLRAEDTAVYYCARSANWHDTALDYWGQGTLVTVSS VL: DIQMTQSPSSLSASVGDRVTITCRASQSISSYVNWYQQKPGKAPKLVIYAVTSRASGVPSRFSGSGSGTDFTLTISSLQPEDFATYYCQQSYETPLTFGGGTKVEIK; 0.341
370_D04 (antibody, V domains shown) VH: EVQLLESGGGLVQPGGSLRLSCAASGFTFDSYSMNWVRQAPGKGLEWVANINYNSGYKGYADSVKGRFTISRDNSKNTLYLQMNSLRAEDTAVYYCARSANWHDTALDYWGQGTLVTVSS VL: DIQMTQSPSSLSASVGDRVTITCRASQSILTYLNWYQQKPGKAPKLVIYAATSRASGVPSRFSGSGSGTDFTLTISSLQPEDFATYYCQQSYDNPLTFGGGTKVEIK; 0.371
371_A03 (antibody, V domains shown) VH: EVQLLESGGGLVQPGGSLRLSCAASGFTFSDYGMNWVRQAPGKGLEWVANINYNGGYTGYADSVKGRFTISRDNSKNTLYLQMNSLRAEDTAVYYCARSANWHDTALDYWGQGTLVTVSS VL: DIQMTQSPSSLSASVGDRVTITCRASQSILSYLNWYQQKPGKAPKLVIYATTSRASGVPSRFSGSGSGTDFTLTISSLQPEDFATYYCQQSYESPLTFGGGTKVEIK; 0.354

Next item in the queue.
Task: Name the recorded optical density for 367_G05 (antibody, V domains shown) VH: EVQLLESGGGLVQPGGSLRLSCAASGFTFSDYGMNWVRQAPGKGLEWVANINYNGGYTSYADSVKGRFTISRDNSKNTLYLQMNSLRAEDTAVYYCARSANWHDTALDYWGQGTLVTVSS VL: DIQMTQSPSSLSASVGDRVTITCRASQSIVSYLNWYQQKPGKAPKLVIYAATSLASGVPSRFSGSGSGTDFTLTISSLQPEDFATYYCQQSYDTPLTFGGGTKVEIK .
Output: 0.283
